Conditions: in THF, 323.55 K
Assay Metric: solubility (mole fraction)
Write the number on its own, no unit after it.

(Q) # lookup: solubility (mole fraction) of O=P1(C(Nc2ccccc2)c2ccccc2)OCC2(CO1)COP(=O)(C(Nc1ccccc1)c1ccccc1)OC2 (stereo unspecified)
(A) 0.00788

----------
Conditions: in acetonitrile, 288.3 K
Assay Metric: solubility (mole fraction)
Write the number on its own, no unit after it.

(Q) # lookup: solubility (mole fraction) of O=P1(C(Nc2ccccc2)c2ccccc2)OCC2(CO1)COP(=O)(C(Nc1ccccc1)c1ccccc1)OC2 (stereo unspecified)
(A) 3.6e-05

----------
Settings: in diethyl ether, 298.65 K
Assay Metric: solubility (mole fraction)
Write the number on its own, no unit after it.

(Q) # lookup: solubility (mole fraction) of O=P1(C(Nc2ccccc2)c2ccccc2)OCC2(CO1)COP(=O)(C(Nc1ccccc1)c1ccccc1)OC2 (stereo unspecified)
(A) 0.000213
